# Study target: HMGCR (TM1-8)-GFP (Cricetulus griseus)
# Protocol description: HMGCR (TM1-8)-GFP fluorescent assay (high-content imaging) in CHG cells
# Settings: read-out: Mean (HMGCR (TM1-8)-GFP signal relative to 0 μM = 100)
Quantity name: remaining activity at 1.25 µM (%)
Answers are plain numbers, in %.

Solved entries (count: 2):
{"Molecule": "COC(=O)CC[C@@H](C)C1CCC2C3C(CC[C@@]21C)[C@@]1(C)CC[C@H](O)C(C)(C)C1=C[C@@H]3O (stereo partly shown) [Compound 49]", "Quantity name": "remaining activity at 1.25 µM", "Observed value": 93}
{"Molecule": "C=CCC(O)(CC=C)CCCCC[C@@H](C)C1CCC2C3C(CC[C@@]21C)[C@@]1(C)CC[C@H](O)C(C)(C)C1=C[C@@H]3O (stereo partly shown) [Compound 119]", "Quantity name": "remaining activity at 1.25 µM", "Observed value": 81.1}

Batch request: remaining activity at 1.25 µM for each of the following molecules.
1. CC(O)CC[C@@H](C)C1CCC2C3C(CC[C@@]21C)[C@@]1(C)CC[C@H](O)C(C)(C)C1=C[C@@H]3O (stereo partly shown) [Compound 63]
2. C[C@H](CCCC(=O)O)C1CCC2C3C(CC[C@@]21C)[C@@]1(C)CC[C@H](O)C(C)(C)C1=C[C@@H]3O (stereo partly shown) [Compound 73]
3. C[C@H](CCCCO)C1CCC2C3C(CC[C@@]21C)[C@@]1(C)CC[C@H](O)C(C)(C)C1=C[C@@H]3O (stereo partly shown) [Compound 74]

a:
1. 73.2
2. 98.1
3. 83.2

Batch request: remaining activity at 1.25 µM for each of the following molecules.
1. CC(O)CCC[C@@H](C)C1CCC2C3C(CC[C@@]21C)[C@@]1(C)CC[C@H](O)C(C)(C)C1=C[C@@H]3O (stereo partly shown) [Compound 86]
2. C[C@H](CCCCC(C)(C)O)C1CCC2C3C(CC[C@@]21C)[C@@]1(C)CC[C@H](O)C(C)(C)C1=C[C@@H]3O (stereo partly shown) [Compound 100]

a:
64.4
33.5

----------
# Study target: HMGCR (TM1-8)-GFP (Cricetulus griseus)
# Sequence (P00347 1-346): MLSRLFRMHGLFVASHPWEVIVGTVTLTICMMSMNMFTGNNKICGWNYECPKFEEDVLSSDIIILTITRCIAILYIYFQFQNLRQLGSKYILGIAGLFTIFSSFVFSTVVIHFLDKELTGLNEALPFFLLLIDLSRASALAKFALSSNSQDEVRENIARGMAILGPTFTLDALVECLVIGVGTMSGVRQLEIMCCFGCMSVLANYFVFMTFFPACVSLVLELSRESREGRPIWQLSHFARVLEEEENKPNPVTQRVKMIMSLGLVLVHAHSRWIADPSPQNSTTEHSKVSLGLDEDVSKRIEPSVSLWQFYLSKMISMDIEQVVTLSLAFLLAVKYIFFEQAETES
# Protocol description: HMGCR (TM1-8)-GFP fluorescent assay (high-content imaging) in CHG cells
# Settings: read-out: Mean (HMGCR (TM1-8)-GFP signal relative to 0 μM = 100)
Binary call on remaining activity at 10 µM with cut-off 40%: strictly below means met, and equality or higher means not met.

Worked cases, answers included:
{"Molecule": "C[C@H](CCCO)C1CCC2C3C(CC[C@@]21C)[C@@]1(C)CC[C@H](O)C(C)(C)C1=C[C@@H]3O (stereo partly shown)", "Group label": "not met"}
{"Molecule": "COC(=O)CC[C@@H](C)C1CCC2C3C(CC[C@@]21C)[C@@]1(C)CC[C@H](O)C(C)(C)C1=C[C@@H]3O (stereo partly shown)", "Group label": "met"}
{"Molecule": "C=CCC(O)CCCC[C@@H](C)C1CCC2C3C(CC[C@@]21C)[C@@]1(C)CC[C@H](O)C(C)(C)C1=C[C@@H]3O (stereo partly shown)", "Group label": "met"}
{"Molecule": "C[C@H](CCCC(=O)O)C1CCC2C3C(CC[C@@]21C)[C@@]1(C)CC[C@H](O)C(C)(C)C1=C[C@@H]3O (stereo partly shown)", "Group label": "not met"}

q: Would you kindly verify if remaining activity at 10 µM of C[C@H](CCCCCCO)C1CCC2C3C(CC[C@@]21C)[C@@]1(C)CC[C@H](O)C(C)(C)C1=C[C@@H]3O (stereo partly shown) is strictly less than 40%?
a: met

q: Would you kindly verify if remaining activity at 10 µM of C[C@H](CCCCO)C1CCC2C3C(CC[C@@]21C)[C@@]1(C)CC[C@H](O)C(C)(C)C1=C[C@@H]3O (stereo partly shown) is strictly less than 40%?
a: met

q: Would you kindly verify if remaining activity at 10 µM of C=CCC(O)CCC[C@@H](C)C1CCC2C3C(CC[C@@]21C)[C@@]1(C)CC[C@H](O)C(C)(C)C1=C[C@@H]3O (stereo partly shown) is strictly less than 40%?
a: met
